A collection of compounds and their measured cytotoxicity at 70.5 h
ASSAY_OVERVIEW: Human HepG2 cell viability assay in 384 well format
Assay type: toxicity, cell-based
Parameters: dose 125 nL, time 70.5 hour; concentration not given beside the values
STUDY_CONDITIONS: HepG2 cells, read-out: Inhibition
METRIC: cytotoxicity at 70.5 h (%)

COMPOUND: CCc1ccc(C2COCCN2C(=O)Nc2cccc(C(C)=O)c2)o1 (stereo not given)
METRIC: cytotoxicity at 70.5 h
QUANTITATIVE_RESULT: -1.25
--
COMPOUND: O=C(CN1CCC(C(=O)c2cc(F)ccc2F)CC1)NC1CC1
METRIC: cytotoxicity at 70.5 h
QUANTITATIVE_RESULT: -12
--
COMPOUND: CO[C@H]1CC[C@H]2[C@H]1OCCN2C(=O)c1nn(C)c2ccccc12
METRIC: cytotoxicity at 70.5 h
QUANTITATIVE_RESULT: -3.21
--
COMPOUND: O=C(NCc1nnc2n1CCC2)N1CCc2sccc2C1
METRIC: cytotoxicity at 70.5 h
QUANTITATIVE_RESULT: -6.3
--
COMPOUND: CSc1ccc(-c2nc(CN3CCNCC3C)c(C)o2)cc1 (stereo not given)
METRIC: cytotoxicity at 70.5 h
QUANTITATIVE_RESULT: 3

###

ASSAY_OVERVIEW: Human HepG2 cell viability assay in 384 well format
Type: toxicity, cell-based
Parameters: dose 125 nL, time 70.5 hour; concentration not given beside the values
STUDY_CONDITIONS: HepG2 cells, read-out: Inhibition
METRIC: cytotoxicity at 70.5 h (%)

COMPOUND: Cc1occc1C(=O)Nc1cc(N2CCNC2=O)ccc1Cl
METRIC: cytotoxicity at 70.5 h
QUANTITATIVE_RESULT: 6.66

COMPOUND: CN1[C@@H](C(=O)NCC2CC2)C[C@@H]2CN(c3ncccn3)C[C@@H]21
METRIC: cytotoxicity at 70.5 h
QUANTITATIVE_RESULT: -3.13

COMPOUND: COc1ccc(/C=C/CN2C[C@H]3CC[C@@H]2CN(S(=O)(=O)N(C)C)C3)cc1
METRIC: cytotoxicity at 70.5 h
QUANTITATIVE_RESULT: -5.26

COMPOUND: O=C1CO[C@H]2CN(S(=O)(=O)c3ccccc3)C[C@H]2N1CC1CCCCC1
METRIC: cytotoxicity at 70.5 h
QUANTITATIVE_RESULT: -11.1

COMPOUND: COc1cccc(S(=O)(=O)Cc2noc(CC(C)C)n2)c1
METRIC: cytotoxicity at 70.5 h
QUANTITATIVE_RESULT: -4.78

COMPOUND: CN(Cc1ccc2c(c1)OCO2)Cc1nc(Cc2ccccc2)no1
METRIC: cytotoxicity at 70.5 h
QUANTITATIVE_RESULT: -5.91

COMPOUND: COc1ccccc1C(C)NC(=O)N1CCC(n2cncn2)CC1 (centres undefined)
METRIC: cytotoxicity at 70.5 h
QUANTITATIVE_RESULT: -7.85

COMPOUND: CCN(CC1CCOC1)C(=O)c1ccc(COc2ccccc2C#N)o1 (centres undefined)
METRIC: cytotoxicity at 70.5 h
QUANTITATIVE_RESULT: -3.17

COMPOUND: OC1CCN([C@@H]2CCN(c3nc(-c4ccccc4)no3)C[C@H]2O)CC1
METRIC: cytotoxicity at 70.5 h
QUANTITATIVE_RESULT: -1.33

COMPOUND: Cc1ccc(Cl)c(C)c1NC(=O)N1CCCN(Cc2ccccn2)CC1
METRIC: cytotoxicity at 70.5 h
QUANTITATIVE_RESULT: 2.01

COMPOUND: CN(C)C[C@H]1OC[C@@H]2CCN(C(=O)c3cccn3C)C[C@@H]21
METRIC: cytotoxicity at 70.5 h
QUANTITATIVE_RESULT: -7.55

COMPOUND: O=C(CCC(=O)N1CCC(c2noc3cc(F)ccc23)CC1)NC1CC1
METRIC: cytotoxicity at 70.5 h
QUANTITATIVE_RESULT: 13.1

COMPOUND: CC(C)CN1CC[C@@H]2[C@@H]1CCN2C(=O)N(C)C
METRIC: cytotoxicity at 70.5 h
QUANTITATIVE_RESULT: -11.8

COMPOUND: Cc1cccc(COCC2c3nnn(C)c3CCN2Cc2ccoc2)n1 (centres undefined)
METRIC: cytotoxicity at 70.5 h
QUANTITATIVE_RESULT: -5.52

COMPOUND: OC(CNc1cncc(OCc2ccccc2)n1)c1ccco1 (centres undefined)
METRIC: cytotoxicity at 70.5 h
QUANTITATIVE_RESULT: -5.66

COMPOUND: O=C(CC1CC1)N1C[C@H]2CN(CC3CC3)C(=O)[C@H]2C1
METRIC: cytotoxicity at 70.5 h
QUANTITATIVE_RESULT: -1.89

COMPOUND: CCOC(=O)N1CCCC2(CCN(Cc3ccccc3C#N)C2)C1 (centres undefined)
METRIC: cytotoxicity at 70.5 h
QUANTITATIVE_RESULT: -6.46

COMPOUND: c1nc2n(n1)CC(NCc1nc(-c3ccsc3)no1)CC2 (centres undefined)
METRIC: cytotoxicity at 70.5 h
QUANTITATIVE_RESULT: -8.53

COMPOUND: CN(C)CC1(O)CCN(C(=O)Cc2ccc3c(c2)CCCC3)C1 (centres undefined)
METRIC: cytotoxicity at 70.5 h
QUANTITATIVE_RESULT: -7

COMPOUND: COCCc1ncc(CNC2(c3ccc(Cl)cc3)CC2)cn1
METRIC: cytotoxicity at 70.5 h
QUANTITATIVE_RESULT: 0.0528

COMPOUND: Cc1cncc(C2CCCN(CC3CCC3)C2)n1 (centres undefined)
METRIC: cytotoxicity at 70.5 h
QUANTITATIVE_RESULT: -4.65

COMPOUND: c1cncc(CNc2ccccc2-c2nn[nH]n2)c1
METRIC: cytotoxicity at 70.5 h
QUANTITATIVE_RESULT: -5.95

COMPOUND: Cc1csc(CNC(=O)NCC(O)c2ccc(F)cc2F)n1 (centres undefined)
METRIC: cytotoxicity at 70.5 h
QUANTITATIVE_RESULT: 5.96

COMPOUND: Cc1cnn(CC2CN(Cc3nc4ccccc4c(=O)[nH]3)CCO2)c1 (centres undefined)
METRIC: cytotoxicity at 70.5 h
QUANTITATIVE_RESULT: -4.67

COMPOUND: Cc1ccc(-c2cc(C(=O)NCCCc3csc(N)n3)[nH]n2)o1
METRIC: cytotoxicity at 70.5 h
QUANTITATIVE_RESULT: 1.47

COMPOUND: COc1ccnc(N2CCN(C(=O)c3cscn3)CC2)n1
METRIC: cytotoxicity at 70.5 h
QUANTITATIVE_RESULT: -2.19

COMPOUND: CC(COCC(F)(F)F)NC(=O)c1ccc(-c2ccco2)[nH]c1=O (centres undefined)
METRIC: cytotoxicity at 70.5 h
QUANTITATIVE_RESULT: -1.67

COMPOUND: CC(=O)c1cccc(OCCCC(=O)N(C)CC(N)=O)c1
METRIC: cytotoxicity at 70.5 h
QUANTITATIVE_RESULT: -7.52

COMPOUND: Cc1ccoc1-c1nnc(CN2CCn3c(nnc3C3CC3)C2)o1
METRIC: cytotoxicity at 70.5 h
QUANTITATIVE_RESULT: 31.2

COMPOUND: CCc1nn(C)c(CC)c1CNC(=O)Nc1cccc2c1CCN2C
METRIC: cytotoxicity at 70.5 h
QUANTITATIVE_RESULT: -0.865

COMPOUND: CCN(CC)C(=O)c1ccn(COc2cccc(Cl)c2Cl)n1
METRIC: cytotoxicity at 70.5 h
QUANTITATIVE_RESULT: -2.31

COMPOUND: O=C1CN(c2cc(-c3ccccc3F)nc3ccnn23)CCCN1
METRIC: cytotoxicity at 70.5 h
QUANTITATIVE_RESULT: -14.6

COMPOUND: CCCNC(=O)C(C)Oc1ccccc1 (centres undefined)
METRIC: cytotoxicity at 70.5 h
QUANTITATIVE_RESULT: -5.34

COMPOUND: CN(C)CCN1C[C@@H]2CN(c3ccccc3)C[C@@H]2C1=O
METRIC: cytotoxicity at 70.5 h
QUANTITATIVE_RESULT: 23.6
